assay.name: melting temperature; fluorescence melt of hairpins on a sequencing array, two-state fit, raised by 9.35 °C to match UV melts
study.conditions: sodium 0.088 M

| item.sequence | Tm [°C] |
| --- | --- |
| GCTCCTGGAAACGGGAGC (((((.(....).))))) | 59.5 |
| GCGTAGCGAAAGCTAAGC ((.((((....)))).)) | 58.5 |
| CGAGGGCGGAAACGCTCG (((..(((....)))))) | 48.5 |
| GACTCCGAAAGGACGTC ((((((....))).))) | 49.9 |
| GGTGGCGAAAGCCTTACC ((((((....)))..))) | 40.2 |
| GTTAGCGAAAGCTCTAAC ((((((....)))..))) | 25.6 |
| GTTTATGGAAACATAAGC (.(((((....))))).) | 33.7 |
| GGACCCGAAAGGGTTTCC ((((((....)))..))) | 37.1 |
| GCAGGCGGAAACGCCCAC (..((((....))))..) | 27.1 |
| GATCTAGCGTTAGATC ((((((....)))))) | 39.7 |
| GTCAGCGAAAGCTAGAC ((((((....))).))) | 50.7 |
| GCGACGCGAAAGCGATGC ((..(((....)))..)) | 61.8 |
| GCTTGGGGAAACTCGAGC (((.(.(....).).))) | 36.9 |
| GCTTGGCGAAAGCAACGC ((.(.((....)).).)) | 33.5 |
| GGCTACGAAAGTACGGCC ((((((....)))..))) | 46.5 |
| GCGAATACGAAAGTACGC (((..(((....)))))) | 44.9 |
| GGCCGAGGAAACCCGACC ((.((.(....).)).)) | 34 |
| GATCCCGTCCGGGATC ((((((....)))))) | 67.9 |
| GTCCCTCGAAAGAGCGAC (((.(((....))).))) | 40.1 |
| GCGGCCACCCGC ((((....)))) | 59.5 |
| GTCCACGAAAGTGCTGAC ((((((....)))..))) | 33.9 |
| GACTTAGGAAACTAGGTC (((.(((....))).))) | 36.8 |
| GCAGCGTCGAAAGACTGC (((..(((....)))))) | 44.4 |
| CGAACGGAAACGTTTTCG ((((((....)))..))) | 30.4 |
| GATGTTGGAAACAACATC (((((((....))))))) | 58.4 |
| GATCTGATTCAGATC ((((((...)))))) | 48.7 |
| GGCATCGGAAACAACGCC (((.(.(....).).))) | 27.4 |
| GCTAGGCGAAAGCTTGGC ((.(.((....)).).)) | 45.2 |
| GGTCTACCGAAAGGTACC (((..(((....)))))) | 29.1 |
| GGAATCGAAAGATCTTCC ((((((....)))..))) | 30.6 |
| GCCAACGAAAGTTAGGGC ((((((....)))..))) | 46.6 |
| GATCTAGACCTAGATC ((((((....)))))) | 47.2 |
| GCGTGTGGAAACGTACGC ((((..(....)..)))) | 50.1 |
| GCTCACGAAAGTGCGAGC ((((((....)))..))) | 38.7 |
| GATCGGACGCCCGATC ((((((....)))))) | 57.3 |
| GAGGGGGGAAACCCCTTC ((.((((....)))).)) | 53.5 |
| GATCTGTCTCCAGATC ((((((....)))))) | 48.4 |
